# TARGET: farnesyl protein transferase (Homo sapiens, UniProt P49354+P49356)
# MEASUREMENT PROTOCOL: In vitro assay for inhibition of farnesyl protein transferase
# Type: biochemical
# CONDITION: read-out: % of inhibition at 10^−7 M
ENDPOINT: inhibition at 0.1 µM

>  <MOLECULE>
N#Cc1ccc(Cn2cncc2C(O)c2ccc3c(c2)c(-c2cccc(Cl)c2)cc2nnnn23)cc1 (stereo not shown) [Compound 14]

>  <TEST VALUE>
87%

$$$$
>  <MOLECULE>
Cn1c(=O)cc(-c2cccc(Cl)c2)c2cc(C(O)c3cncn3Cc3ccc(C#N)cc3)ccc21 (stereo not shown) [Compound 3]

>  <TEST VALUE>
92%

$$$$
>  <MOLECULE>
Cn1c(=O)cc(-c2cccc(Cl)c2)c2cc(C(N)c3cncn3Cc3ccccc3)ccc21 (stereo not shown) [Compound 11]

>  <TEST VALUE>
49%

$$$$
>  <MOLECULE>
O=C(c1ccc2c(c1)c(-c1cccc(Cl)c1)cc1nnnn12)c1cncn1Cc1ccc(Cl)cc1 [Compound 4]

>  <TEST VALUE>
26%

$$$$

###

Consider the following compounds and their measured inhibition at 0.1 µM readings.
# TARGET: farnesyl protein transferase (Homo sapiens, UniProt P49354+P49356)
# MEASUREMENT PROTOCOL: In vitro assay for inhibition of farnesyl protein transferase
# Format: biochemical
# CONDITION: read-out: % of inhibition at 10^−7 M

>  <COMPOUND>
OC(c1ccc2c(c1)c(-c1cccc(Cl)c1)cc1nnnn12)c1cncn1Cc1ccc(Cl)cc1 (stereo not shown)

>  <TARGET>
farnesyl protein transferase (Homo sapiens, UniProt P49354+P49356)

>  <inhibition at 0.1 µM>
32%

$$$$
>  <COMPOUND>
COC(c1ccc2c(c1)c(-c1cccc(Cl)c1)cc(=O)n2C)c1cncn1Cc1ccccc1 (stereo not shown)

>  <TARGET>
farnesyl protein transferase (Homo sapiens, UniProt P49354+P49356)

>  <inhibition at 0.1 µM>
43%

$$$$
>  <COMPOUND>
N#Cc1ccc(Cn2c(=O)cc(-c3cccc(Cl)c3)c3cc(C(=O)c4cncn4Cc4ccc(Cl)cc4)ccc32)cc1

>  <TARGET>
farnesyl protein transferase (Homo sapiens, UniProt P49354+P49356)

>  <inhibition at 0.1 µM>
33%

$$$$
>  <COMPOUND>
CC(=O)NC(c1ccc2c(c1)c(-c1cccc(Cl)c1)cc(=O)n2C)c1cncn1Cc1ccccc1 (stereo not shown)

>  <TARGET>
farnesyl protein transferase (Homo sapiens, UniProt P49354+P49356)

>  <inhibition at 0.1 µM>
65%

$$$$
>  <COMPOUND>
Cn1c(=O)cc(-c2cccc(Cl)c2)c2cc(C(c3cncn3Cc3ccccc3)n3ccnc3)ccc21 (stereo not shown)

>  <TARGET>
farnesyl protein transferase (Homo sapiens, UniProt P49354+P49356)

>  <inhibition at 0.1 µM>
47%

$$$$
>  <COMPOUND>
O=C(c1ccc2c(c1)c(-c1cccc(Cl)c1)cc(=O)n2CC1CC1)c1cncn1Cc1ccc(Cl)cc1

>  <TARGET>
farnesyl protein transferase (Homo sapiens, UniProt P49354+P49356)

>  <inhibition at 0.1 µM>
18%

$$$$
>  <COMPOUND>
Cn1c(=O)cc(-c2cccc(Cl)c2)c2cc(C(NC3CC3)c3cncn3Cc3ccccc3)ccc21 (stereo not shown)

>  <TARGET>
farnesyl protein transferase (Homo sapiens, UniProt P49354+P49356)

>  <inhibition at 0.1 µM>
44%

$$$$

###

Consider the following molecules and their measured melting point readings.

>  <MOLECULE>
Cn1c(=O)cc(-c2cccc(Cl)c2)c2cc(C(c3cncn3Cc3ccccc3)n3ccnc3)ccc21 (stereo not shown)

>  <OUTPUT UNIT>
°C

>  <melting point>
102

$$$$
>  <MOLECULE>
Cn1c(=O)cc(-c2cccc(Cl)c2)c2cc(C(O)c3cncn3Cc3ccc(C#N)cc3)ccc21 (stereo not shown)

>  <OUTPUT UNIT>
°C

>  <melting point>
150

$$$$
>  <MOLECULE>
Cn1c(=O)cc(-c2cccc(Cl)c2)c2cc(C(O)c3cncn3Cc3ccccc3)ccc21 (stereo not shown)

>  <OUTPUT UNIT>
°C

>  <melting point>
188

$$$$
>  <MOLECULE>
OC(c1ccc2c(c1)c(-c1cccc(Cl)c1)cc1nnnn12)c1cncn1Cc1ccc(Cl)cc1 (stereo not shown)

>  <OUTPUT UNIT>
°C

>  <melting point>
140

$$$$
>  <MOLECULE>
CC(=O)NC(c1ccc2c(c1)c(-c1cccc(Cl)c1)cc(=O)n2C)c1cncn1Cc1ccccc1 (stereo not shown)

>  <OUTPUT UNIT>
°C

>  <melting point>
210

$$$$
>  <MOLECULE>
O=C(c1ccc2c(c1)c(-c1cccc(Cl)c1)cc1nnnn12)c1cncn1Cc1ccc(Cl)cc1

>  <OUTPUT UNIT>
°C

>  <melting point>
105

$$$$
>  <MOLECULE>
Cn1c(=O)cc(-c2cccc(Cl)c2)c2cc(C(=O)c3cncn3Cc3ccccc3)ccc21

>  <OUTPUT UNIT>
°C

>  <melting point>
192

$$$$

###

Consider the following molecules and their measured IC50 readings.
# TARGET: farnesyl protein transferase (Homo sapiens, UniProt P49354+P49356)
# MEASUREMENT PROTOCOL: In vitro assay for inhibition of farnesyl protein transferase
# Type: biochemical
# CONDITION: negative log value of the IC50-value; read-out: Enzyme activity pIC50 (converted)

>  <MOLECULE>
Cn1c(=O)cc(-c2cccc(Cl)c2)c2cc(C(O)c3cncn3Cc3ccc(C#N)cc3)ccc21 (stereo not shown) [Compound 3]

>  <IC50>
5.45 nM

$$$$
>  <MOLECULE>
O=C(c1ccc2c(c1)c(-c1cccc(Cl)c1)cc1nnnn12)c1cncn1Cc1ccc(Cl)cc1 [Compound 4]

>  <IC50>
> 100 nM

$$$$
>  <MOLECULE>
Cn1c(=O)cc(-c2cccc(Cl)c2)c2cc(C(N)c3cncn3Cc3ccccc3)ccc21 (stereo not shown) [Compound 11]

>  <IC50>
> 100 nM

$$$$
>  <MOLECULE>
CC(=O)NC(c1ccc2c(c1)c(-c1cccc(Cl)c1)cc(=O)n2C)c1cncn1Cc1ccccc1 (stereo not shown) [Compound 13]

>  <IC50>
< 100 nM

$$$$
>  <MOLECULE>
N#Cc1ccc(Cn2c(=O)cc(-c3cccc(Cl)c3)c3cc(C(=O)c4cncn4Cc4ccc(Cl)cc4)ccc32)cc1 [Compound 17]

>  <IC50>
> 100 nM

$$$$
>  <MOLECULE>
O=C(c1ccc2c(c1)c(-c1cccc(Cl)c1)cc(=O)n2CC1CC1)c1cncn1Cc1ccc(Cl)cc1 [Compound 16]

>  <IC50>
> 100 nM

$$$$
>  <MOLECULE>
Cn1c(=O)cc(-c2cccc(Cl)c2)c2cc(C(c3cncn3Cc3ccccc3)n3ccnc3)ccc21 (stereo not shown) [Compound 12]

>  <IC50>
> 100 nM

$$$$
>  <MOLECULE>
Cn1c(=O)cc(-c2cccc(Cl)c2)c2cc(C(NC3CC3)c3cncn3Cc3ccccc3)ccc21 (stereo not shown) [Compound 9]

>  <IC50>
> 100 nM

$$$$
>  <MOLECULE>
COC(c1ccc2c(c1)c(-c1cccc(Cl)c1)cc(=O)n2C)c1cncn1Cc1ccccc1 (stereo not shown) [Compound 10]

>  <IC50>
> 100 nM

$$$$
>  <MOLECULE>
OC(c1ccc2c(c1)c(-c1cccc(Cl)c1)cc1nnnn12)c1cncn1Cc1ccc(Cl)cc1 (stereo not shown) [Compound 5]

>  <IC50>
> 100 nM

$$$$
